Provide the recorded log10(EC50) for the entries that follow.
- Measurement target: S1-mFc (UniProt P0DTC2 14-694)
- Method notes: ELISA
Would you kindly interpret these values as log10 of EC50 expressed in nM?

Name the reported log10(EC50) value associated with the binder STE73-6B10 (antibody, V domains shown) VH: QVQLVQSGAEVKKPGASVKVSCKASGYTFTSYGISWVRQAPGQGLEWMGWINPNSGGTNYAQKFQGRVTMTRDTSISTAYMELSRLRSDDTAVYYCARDRLRYGDSGSYYYYGMDVWGQGTTVTVSS VL: QSALTQPRSVSGSPGQSVTISCTGTSSDVGGYNYVSWYQQHPGKAPKLLISEVTRRPSGVPDRFSGSKSGNTASLTVSGLQTEDEADYYCGSYAGSNTWVFGGGTKLTVL
1.18

Name the reported log10(EC50) value associated with the binder STE73-2G8 (antibody, V domains shown) VH: QVQLVQSGGGLVKPGGSLRLSCAASGITVSSNYMSWVRQAPGKGLEWVSILYSGGTTFYTDSVKGRFTISRDNSKNTLHLQMNSLRAEDTAVYYCARWSGTYYDYWGQGTLVTVSS VL: SSELTQDPAVSVALGQTVRITCQGDSLRSYYASWYQQKPGQAPVLVIYGKNNRPSGIPDRFSGSSSGNTASLTITGAQAEDEADYYCNSRDSTNDPVLFGAGTKLTVL
0.00

Name the reported log10(EC50) value associated with the binder STE73-2B2 (antibody, V domains shown) VH: QVQLVQSGAEVKKPGASVKVSCKASGYTFTGYYMHWVRQAPGQGLEWMGWINPNSGGTNYAQKFQGRVTITRDTSASTAYMELSSLRSEDTAVYYCARVSGWYFGAFDIWGQGTMVTVSS VL: LPVLTQPHSLSESPGKTVNISCTGSSGSIASNYVQWYQQRPGSAPTTVIYEDSHRPSGVPDRFSGSIDSSSNSASLSISGLKTEDEADYYCQSYDSSNNQWVFGGGTKLTVL
-0.10

Name the reported log10(EC50) value associated with the binder STE73-2E9 (antibody, V domains shown) VH: QVQLVQSGAEVKKPGASVKVSCKASGYTFTSYGISWVRQAPGQGLEWMGWISAYNGNTNYAQKLQGRVTMTTDTSTSTAYMELRSLRSDDTAVYYCARGKFDYWGQGTLVTVSS VL: QSVLTQPPSVSEAPSQRVTISCSGSSSNIGNNAVNWYQQLPGKAPKLLIYYDDVLPSGVSDRFSGSKSGTSASLAISGLQSGDEADYYCAAWDDSLSGVVFGGGTKLTVL
-0.22

Name the reported log10(EC50) value associated with the binder STE73-9G3 (antibody, V domains shown) VH: QVQLQESGGGLVQPGGSLRLSCAASGFTFSSYAMSWVRQAPGKGLEWVSAISGSGGSTYYADSVKGRFTISRDNSKNTLYLQMNSLRAEDTAVYYCARDLVLGSGSSNDWGRGTLVTVSS VL: QPVLTQPPSVSGAPGQSVTISCTGTDSNIGAGYNVHWYQQLPGAAPKLIISYTDNRPSGVPDRFSGSKSGTSASLAITGLQAEDEADYYCQSSDRTLVGSLFGTGTKVTVL
0.20

Name the reported log10(EC50) value associated with the binder STE73-6C1 (antibody, V domains shown) VH: QVQLVQSGGGVVQPGRSLRLSCAASGFTFSSYAMHWVRQAPGKGLEWVAVISYDGSNKYYADSVKGRFTISRDNSKNTLYLQMNSLRAEDTAVYYCARSYVGGMDVWGQGTTVTVSS VL: QLVLTQSPSVSGAPGQSVTISCTGTDSNIGAGYNVHWYQQLPGAAPKLIISYTDNRPSGVPDRFSGSKSGTSASLAITGLQAEDEADYYCQSSDRTLVGSLFGTGTKVTVL
0.45

Name the reported log10(EC50) value associated with the binder STE73-2C2 (antibody, V domains shown) VH: QVQLVESGGGLVQPGGSLRLSCAASGITVSSNYMSWVRQAPGKGLEWVSVIYSGGSTFYADSVKGRFTISRDNSKNTLYLQMNSLRAEDTGVYYCARGHDNLDYWGQGTLVTVSS VL: LPVLTQPHSVSESPGKTVIISCTGSSDSIASNYVQWYQQRPGSAPTTVIYEDNKRPSGVPDRFSGSTDSSSNSASLTISGLKTEDEAEYYCQSYDSNNHWVFGGGTKLTVL
1.25
